# System: CYP3A
# Test summary: Intravenous midazolam microdose
# Format: in vivo, human
# Condition: human, plasma, iv, 10 ug
Measure: half-life (h)
# output: bare number, implied unit h

Quick one: half-life for `Cc1ncc2n1-c1ccc(Cl)cc1C(c1ccccc1F)=NC2` ?
2.97

----------
# Test system: CYP3A
# Test summary: Limited-sampling strategy
# Condition: human, in vivo, po, 30 ug
Measure: AUC (ng·h/mL)
Express the result in ng·h/mL but write the number alone.

Record `Cc1ncc2n1-c1ccc(Cl)cc1C(c1ccccc1F)=NC2` : what is its AUC with CYP3A?
0.0657

----------
# Test system: CYP3A
# Test summary: Oral midazolam microdose
# Type: in vivo, human
# Condition: human, plasma, po, 30 ug, F (absolute bioavailability), 30 μg midazolam orally; baseline; GM (95% CI)
Measure: bioavailability (%)
The reply should contain only the number, in %.

Give the measured bioavailability of Cc1ncc2n1-c1ccc(Cl)cc1C(c1ccccc1F)=NC2 [midazolam] .
35.1

----------
# Test system: CYP3A
# Test summary: Oral midazolam microdose
# Type: in vivo, human
# Condition: human, plasma, po, 30 ug
Measure: AUC(0-inf) (ng·h/mL)
// return numeric value only (unit: ng·h/mL, not printed)

Reported AUC(0-inf) for Cc1ncc2n1-c1ccc(Cl)cc1C(c1ccccc1F)=NC2 [midazolam] : what is it?
0.303
